This collection of values is drawn from ChEMBL document CHEMBL5154891.

- Assay summary: Metabolic stability in human Hepatocyte assessed as intrinsic clearance measured per 10^6 cells
- Format: ADME, cell-based
- Assay setup: hepatocytes, read-out: CLH
Measured property: hepatocyte CLint (µL/min/1e6 cells)

I: C=CC(=O)N1CCN2c3ncnc4cc(-c5c(C)ccc6[nH]ncc56)c(Cl)c(c34)OCC[C@H]2C1 (single isomer, unassigned; atropisomer 2)
II: C=CC(=O)N1CCN2c3ncnc4c(F)c(-c5c(O)cccc5F)c(Cl)c(c34)OCC[C@H]2C1
Input line: I need your help: which of the pair I , II has higher hepatocyte CLint? Label of pick, please.
Output line: I

---

- Target or system: Ribosomal protein S6 kinase alpha-1 (Homo sapiens, UniProt Q15418)
- Assay summary: Inhibition of p90RSK phosphorylation in human PC-9 cells measured for 2 hrs by immunofluorescence assay
- Type: cell-based
Measured property: IC50 (µM)
Kindly answer with a numeric value in µM, unit omitted.

Input line: Answer with the recorded IC50 of C=CC(=O)N1C[C@@H]2CCOc3c(Cl)c(-c4c(O)cccc4F)c(F)c4ncnc(c34)N2C[C@H]1C only.
Output line: 4.95

---

- Target or system: GTPase KRas (Homo sapiens, UniProt P01116, G12C)
- Assay summary: Inhibition of C-terminal Avi and 6His-tagged human KRAS 2B G12C mutant (1 to 166 residues) expressed in Escherichia coli BL21 (DE3) assessed as inhibition of SOS mediated nucleotide exchange preincubated for 4 hrs followed by SOS1 addition by HTRF assay
Measured property: IC50 (nM)

Input line: Consider the molecule C=CC(=O)N1C[C@H]2COc3c(Cl)c(-c4c(O)cccc4F)c(F)c4ncnc(c34)N2C[C@H]1C (stereo in doubt; 32) and give its recorded IC50.
Output line: 64

Input line: Tell me measured IC50 for C=CC(=O)N1CCN2c3ncnc4c(F)c(-c5c(O)cccc5F)c(Cl)c(c34)OC[C@@H]2C1 please.
Output line: 19

Input line: Provide one value: measured IC50 of C=CC(=O)N1CCN2c3ncnc4cc(-c5c(C)ccc6[nH]ncc56)c(Cl)c(c34)OC[C@@H]2C1 (single isomer, unassigned; atropisomer 2)
Output line: 27100

Input line: Tell me its IC50 given C=CC(=O)N1C[C@H]2COc3c(Cl)c(-c4c(O)cccc4F)c(F)c4ncnc(c34)N2C[C@H]1C (stereo in doubt; 30) as the entry.
Output line: 117

Input line: # return recorded IC50 for entry C=CC(=O)N1C[C@H]2COc3c(Cl)c(-c4c(O)cccc4F)c(F)c4ncnc(c34)N2C[C@@H]1C
Output line: 135

a: C=CC(=O)N1C[C@@H]2CCOc3c(Cl)c(-c4c(O)cccc4F)c(F)c4ncnc(c34)N2C[C@H]1C
b: C=CC(=O)N1CCN2c3ncnc4cc(-c5c(C)ccc6[nH]ncc56)c(Cl)c(c34)OC[C@H]2C1 (atropisomer aR)
Input line: I'm curious whether a or b has the smaller IC50 number. Which is it? When you have decided, please share the label of that item.
Output line: a

---

- Assay summary: Metabolic stability in rat hepatocytes assessed as intrinsic clearance per 10^6 cells at 5 uM measured after 60 mins by UHPLC/UV/MS/MS
- Assay type: ADME, cell-based, Hepatocyte
- Assay setup: read-out: CLH
Measured property: hepatocyte CLint at 5 µM (µL/min/1e6 cells)

// worked examples, hepatocyte CLint at 5 µM included
Input line: Please look at this compound and report its hepatocyte CLint at 5 µM: C=CC(=O)N1CCN(c2ncnc3cc(-c4c(C)ccc5[nH]ncc45)c(Cl)cc23)CC1
Output line: 56

Input line: Using known records, supply hepatocyte CLint at 5 µM for C=CC(=O)N1C[C@H]2COc3c(Cl)c(-c4c(O)cccc4F)c(F)c4ncnc(c34)N2C[C@H]1C (stereo in doubt; 30)
Output line: 64

Input line: Please report the measured hepatocyte CLint at 5 µM for C=CC(=O)N1CCN2c3ncnc4cc(-c5c(C)ccc6[nH]ncc56)c(Cl)c(c34)OCC[C@H]2C1 (single isomer, unassigned; atropisomer 2)
Output line: 46

Input line: Respond only with hepatocyte CLint at 5 µM recorded for C=CC(=O)N1CCN2c3ncnc4cc(-c5c(C)ccc6[nH]ncc56)c(Cl)c(c34)OC[C@@H]2C1 (atropisomer aS)
Output line: 109

Input line: Consider the compound C=CC(=O)N1C[C@@H]2CCOc3c(Cl)c(-c4c(O)cccc4F)c(F)c4ncnc(c34)N2C[C@@H]1C . State its measured hepatocyte CLint at 5 µM.
Output line: 143

Input line: Give hepatocyte CLint at 5 µM for the following compound: C=CC(=O)N1CCN2c3ncnc4c(F)c(-c5c(O)cccc5F)c(Cl)c(c34)OCC[C@H]2C1
Output line: 99

Input line: Give the reported hepatocyte CLint at 5 µM for this compound. C=CC(=O)N1CCN2c3ncnc4cc(-c5c(C)ccc6[nH]ncc56)c(Cl)c(c34)OCC[C@@H]2C1 (single isomer, unassigned; atropisomer 1)
Output line: 50

P: C=CC(=O)N1C[C@@H]2CCOc3c(Cl)c(-c4c(O)cccc4F)c(F)c4ncnc(c34)N2C[C@H]1C
Q: C=CC(=O)N1CCN2c3ncnc4c(F)c(-c5c(O)cccc5F)c(Cl)c(c34)OC[C@@H]2C1
R: C=CC(=O)N1C[C@H]2COc3c(Cl)c(-c4c(O)cccc4F)c(F)c4ncnc(c34)N2C[C@@H]1C
Input line: Exam item: list the entries in increasing order of hepatocyte CLint at 5 µM. Your answer should be the labels, listed in the requested order.
Output line: P, Q, R
(P: 40 µL/min/1e6 cells, Q: 79 µL/min/1e6 cells, R: 238 µL/min/1e6 cells)
